Would you mind telling me the reported IC50 of each entry?
system: A-431; assay: Anticancer activity against Homo sapiens (human) A431 cells assessed as inhibition of cell viability after 72 hr by MTT assay; format: functional, cell-based; details: A-431, 72 h
Answers are plain numbers, in µM.

[
  {
    "Molecule": "Cc1ccc(-c2nnc(SCCCN3CCN(c4nc5ccccc5s4)CC3)o2)cc1",
    "IC50 [µM]": 61.6
  },
  {
    "Molecule": "Oc1ccc(-c2nnc(SCCCN3CCN(c4nc5ccccc5o4)CC3)o2)cc1",
    "IC50 [µM]": 116
  }
]

Provide each entry's IC50 from the list below.
1. O=C(NCc1nnc(SCCCN2CCN(c3nc4ccccc4s3)CC2)o1)c1ccccc1
2. CC(C)(C)Oc1ccc(-c2nnc(SCCCN3CCN(c4nc5ccccc5s4)CC3)o2)cc1
3. Brc1ccc(-c2nnc(SCCCN3CCN(c4nc5ccccc5o4)CC3)o2)cc1

[55.9, 67, 57.8]

Provide each entry's IC50 from the list below.
1. Fc1ccc(-c2nnc(SCCCN3CCN(c4nc5ccccc5s4)CC3)o2)cc1
2. Clc1ccc(-c2nnc(SCCCN3CCN(c4nc5ccccc5s4)CC3)o2)cc1
3. O=C(NCc1nnc(SCCCN2CCN(c3nc4ccccc4o3)CC2)o1)c1ccccc1

1. 67
2. 69.2
3. 36.9

Provide each entry's IC50 from the list below.
1. COc1ccc(-c2nnc(SCCCN3CCN(c4nc5ccccc5s4)CC3)o2)cc1
2. CC(C)(C)Oc1ccc(-c2nnc(SCCCN3CCN(c4nc5ccccc5o4)CC3)o2)cc1
3. O=[N+]([O-])c1ccc(-c2nnc(SCCCN3CCN(c4nc5ccccc5s4)CC3)o2)cc1
4. COc1cc(/C=C/C(=O)CC(=O)/C=C/c2ccc(O)c(OC)c2)ccc1O [CURCUMIN]

[56.2, 65.8, 46.5, 22]

Provide each entry's IC50 from the list below.
1. Fc1ccc(-c2nnc(SCCCN3CCN(c4nc5ccccc5o4)CC3)o2)cc1
2. c1ccc(-c2nnc(SCCCN3CCN(c4nc5ccccc5s4)CC3)o2)cc1
3. O=[N+]([O-])c1ccc(-c2nnc(SCCCN3CCN(c4nc5ccccc5o4)CC3)o2)cc1
4. Cc1ccc(-c2nnc(SCCCN3CCN(c4nc5ccccc5o4)CC3)o2)cc1
5. Brc1ccc(-c2nnc(SCCCN3CCN(c4nc5ccccc5s4)CC3)o2)cc1

1. 136
2. 93.4
3. 46.9
4. 100
5. 51.6

Provide each entry's IC50 from the list below.
1. COc1ccc(-c2nnc(SCCCN3CCN(c4nc5ccccc5o4)CC3)o2)cc1
2. c1ccc(-c2nnc(SCCCN3CCN(c4nc5ccccc5o4)CC3)o2)cc1
3. Oc1ccc(-c2nnc(SCCCN3CCN(c4nc5ccccc5s4)CC3)o2)cc1
4. Clc1ccc(-c2nnc(SCCCN3CCN(c4nc5ccccc5o4)CC3)o2)cc1

1. 52.7
2. 57.6
3. 54.7
4. 89.6

This collection of values is drawn from ChEMBL document CHEMBL3046786.
